B1: CPEB3 Ribozyme (parent)
chain: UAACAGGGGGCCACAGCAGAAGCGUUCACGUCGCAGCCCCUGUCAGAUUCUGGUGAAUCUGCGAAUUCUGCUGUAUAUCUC

- Variants of: B1
- METHOD SUMMARY: self-cleavage, relative activity (ratio to wild type); higher = more cleavage; in vitro, sequencing
Reported self-cleavage values for a set of variants
QUANTITY: self-cleavage

[[record]]
sequence_code = "UAACAGGGGGCCACAGCAGAAGCCUUCACGUCGCAGCCCCUGUCAGAUUCUGGUGAAUCUGCGAAUUCCGCUGUAUAUCUC [G24C U69C]"
assay_value = 0.17

[[record]]
sequence_code = "UAACAGGGGGCCACGGCAGAAGCGUUCACGUCGCAGCCCCUGUCAGAUUCUGGUGAAUCUGCGAAUUCUGCUGUUUAUCUC [A15G A75U]"
assay_value = 1.02

[[record]]
sequence_code = "UAACAGGGGGCCACAGCAGAAGCGUUCACGUCGCGGCCCCUGUCAGAUUCUGGUGAGUCUGCGAAUUCUGCUGUAUAUCUC [A35G A57G]"
assay_value = 1.27

[[record]]
sequence_code = "UAACAGGGGGCCACAGCAGAAGCGUUCACGUCGCGGCCCCUGUCAGAUUCUGGUGAAUCUGCUAAUUCUGCUGUAUAUCUC [A35G G63U]"
assay_value = 1.2

[[record]]
sequence_code = "CAACAGGGGGCCACAGCAGAAGCGUUCACGUCGCAGCCCCUGUCAGAUUCUGGUGAAUCUGCGAAUUCUUCUGUAUAUCUC [U1C G70U]"
assay_value = 0.32

[[record]]
sequence_code = "UGACAGGGGGCCACAGCAGAAGCGUUCACGUCGCAGCCCCUGUCAGAUUCUGUUGAAUCUGCGAAUUCUGCUGUAUAUCUC [A2G G53U]"
assay_value = 0.72

[[record]]
sequence_code = "UAACAGGGGGCCACAGCAGAAGCGUUCACGUCGCAGCCCCUGUCAGUUCCUGGUGAAUCUGCGAAUUCUGCUGUAUAUCUC [A47U U49C]"
assay_value = 0.46

[[record]]
sequence_code = "UAACAGGGGGCCACAGCAGAAGCGUUCACGUCGCAGCCCCUGUCAAAUUCUGGUGAAUCCGCGAAUUCUGCUGUAUAUCUC [G46A U60C]"
assay_value = 0.14

[[record]]
sequence_code = "UAACAGGGGGCCACAGCAGAAGCGUUCACGUCGCAGCCCCUGUCAGAUUCUGGUGAAUCUGCGAAUUCAGCUCUAUAUCUC [U69A G73C]"
assay_value = 0.65

[[record]]
sequence_code = "UAACAGGGGGCCACAGCAGAAGCGUUCACGUCGCAGCCCCUGUCAGAUUCUGGUGAAUCUGCGAACUCUGCUGUAGAUCUC [U66C U76G]"
assay_value = 0.39

[[record]]
sequence_code = "UAACAGGGGGCCACAGCUGAAGCGUUCACGUGGCAGCCCCUGUCAGAUUCUGGUGAAUCUGCGAAUUCUGCUGUAUAUCUC [A18U C32G]"
assay_value = 0.17

[[record]]
sequence_code = "UAACAGGGGGCCACAGCAGAAGCGUUCACGUCGCAGCCCCUGUCAGAUUCUGGUGAAUCUGCGAAUUCUACAGUAUAUCUC [G70A U72A]"
assay_value = 0.33

[[record]]
sequence_code = "UAACAGGGGGCCACGGCAGAAGCGUUCACGUCGCAGCCCCUGUCAGAUUCUGGUGAAUCAGCGAAUUCUGCUGUAUAUCUC [A15G U60A]"
assay_value = 0.35

[[record]]
sequence_code = "UAACAGGGGGCCACAGCAGAAGCGUUCACGUCGCAGCCCCUGUCAGAUUCUGGUGAAUCUGCGAAUUCUGCCGUAUAGCUC [U72C U78G]"
assay_value = 1.16

